# Tested on: KM12 colon
# TEST_DETAILS: NCI tumour cell line growth inhibition, 48 h
REPORTED_PROPERTY: TGI

>  <COMPOUND>
CC(=O)OC12c3ccccc3C(c3ccccc31)C1C(=O)N(c3ccccn3)C(=O)C12 (centres undefined)

>  <TESTED_SYSTEM>
KM12 colon

>  <OBSERVED_RESULT>
> 100 µM

$$$$
>  <COMPOUND>
Cc1ccc(Sc2ccccc2[N+](=O)[O-])cc1

>  <TESTED_SYSTEM>
KM12 colon

>  <OBSERVED_RESULT>
> 100 µM

$$$$
>  <COMPOUND>
O=C1Nc2cc([N+](=O)[O-])c(Br)cc2C1=O

>  <TESTED_SYSTEM>
KM12 colon

>  <OBSERVED_RESULT>
> 100 µM

$$$$
>  <COMPOUND>
Nc1nccc(NCC2(CO)CCC2)n1

>  <TESTED_SYSTEM>
KM12 colon

>  <OBSERVED_RESULT>
> 100 µM

$$$$
>  <COMPOUND>
Cc1cccc2nc3c(=O)[nH]c(=O)nc-3n(C)c12

>  <TESTED_SYSTEM>
KM12 colon

>  <OBSERVED_RESULT>
> 100 µM

$$$$
>  <COMPOUND>
C=C1[C@@](C)([C@@H]2CCCS2)[C@H]2C(C)=C[C@]1(C)n1c(=O)n(-c3ccccc3)c(=O)n12

>  <TESTED_SYSTEM>
KM12 colon

>  <OBSERVED_RESULT>
> 100 µM

$$$$
>  <COMPOUND>
COC(=O)C1C(=O)CC2CCCCC21 (centres undefined)

>  <TESTED_SYSTEM>
KM12 colon

>  <OBSERVED_RESULT>
> 100 µM

$$$$
>  <COMPOUND>
NC(Cc1c[nH]c2cc([N+](=O)[O-])ccc12)C(=O)O (centres undefined)

>  <TESTED_SYSTEM>
KM12 colon

>  <OBSERVED_RESULT>
> 100 µM

$$$$
>  <COMPOUND>
COc1ccc(OC(C(=O)O)C(C)C)c2c1CCCC2=O (centres undefined)

>  <TESTED_SYSTEM>
KM12 colon

>  <OBSERVED_RESULT>
> 100 µM

$$$$
>  <COMPOUND>
N/C(=N\NS(=O)(=O)c1ccccc1)Oc1ccc(Br)cc1Br

>  <TESTED_SYSTEM>
KM12 colon

>  <OBSERVED_RESULT>
> 100 µM

$$$$
>  <COMPOUND>
O=C(O)/C=C\C(=O)Nc1ccccn1

>  <TESTED_SYSTEM>
KM12 colon

>  <OBSERVED_RESULT>
> 100 µM

$$$$
>  <COMPOUND>
CC1CN(S(=O)(=O)c2oc(-c3ccc(Cl)cc3)nc2C#N)CC(C)O1 (centres undefined)

>  <TESTED_SYSTEM>
KM12 colon

>  <OBSERVED_RESULT>
23.5 µM

$$$$
>  <COMPOUND>
Cc1nc2n(c1/C=C1/C(=O)Nc3ccccc31)CCS2

>  <TESTED_SYSTEM>
KM12 colon

>  <OBSERVED_RESULT>
> 100 µM

$$$$
>  <COMPOUND>
C[S+](C)CC1OC(n2cnc3c(N)ncnc32)C(O)C1O (centres undefined)

>  <TESTED_SYSTEM>
KM12 colon

>  <OBSERVED_RESULT>
> 225 µM

$$$$
>  <COMPOUND>
O=c1nc(-c2ccccc2)cc(CC(O)c2ccc(Cl)c(Cl)c2)[nH]1 (centres undefined)

>  <TESTED_SYSTEM>
KM12 colon

>  <OBSERVED_RESULT>
> 100 µM

$$$$
>  <COMPOUND>
CCOc1ccc(/C(C=O)=C(\Cl)c2ccc(OC)cc2)cc1

>  <TESTED_SYSTEM>
KM12 colon

>  <OBSERVED_RESULT>
> 100 µM

$$$$
>  <COMPOUND>
NNc1cnn(-c2ccccc2)c(=O)c1Cl

>  <TESTED_SYSTEM>
KM12 colon

>  <OBSERVED_RESULT>
> 100 µM

$$$$
>  <COMPOUND>
COc1cccc(/C(Cl)=C(\C=O)c2cccc(OC)c2)c1

>  <TESTED_SYSTEM>
KM12 colon

>  <OBSERVED_RESULT>
26.3 µM

$$$$
>  <COMPOUND>
Cl/C(N=Nc1ccccc1)=N/Nc1ccccc1

>  <TESTED_SYSTEM>
KM12 colon

>  <OBSERVED_RESULT>
> 100 µM

$$$$
>  <COMPOUND>
Cc1ccc(S(=O)(=O)[C@@H](Cl)[C@H]2N=C(Cl)NN=C2c2ccccc2)cc1

>  <TESTED_SYSTEM>
KM12 colon

>  <OBSERVED_RESULT>
50 µM

$$$$
>  <COMPOUND>
Cn1c(=O)c2[nH]c(SCCN3CCOCC3)nc2n(C)c1=S

>  <TESTED_SYSTEM>
KM12 colon

>  <OBSERVED_RESULT>
> 100 µM

$$$$
>  <COMPOUND>
O=[N+]([O-])c1ccc2oc(=Nc3ccccc3)c(Nc3ccccc3)nc2c1

>  <TESTED_SYSTEM>
KM12 colon

>  <OBSERVED_RESULT>
> 100 µM

$$$$
>  <COMPOUND>
O=C(Sc1c(-c2ccccc2)c(=O)n(-c2ccccc2)c(=S)n1-c1ccccc1)c1cccs1

>  <TESTED_SYSTEM>
KM12 colon

>  <OBSERVED_RESULT>
> 100 µM

$$$$
>  <COMPOUND>
CC1(C)C2CCC3(OCCO3)C1C(O)C2 (centres undefined)

>  <TESTED_SYSTEM>
KM12 colon

>  <OBSERVED_RESULT>
> 100 µM

$$$$
>  <COMPOUND>
CCC(C)Oc1nc2c(c(=O)n(C)c(=O)n2C)n1C (centres undefined)

>  <TESTED_SYSTEM>
KM12 colon

>  <OBSERVED_RESULT>
> 100 µM

$$$$
>  <COMPOUND>
C[Si](C)(c1ccc(C(=O)O)cc1)c1ccc(C(=O)O)cc1

>  <TESTED_SYSTEM>
KM12 colon

>  <OBSERVED_RESULT>
> 100 µM

$$$$
>  <COMPOUND>
COc1ccc(C(Cc2ccccc2)C2NC(=S)NC2=O)cc1 (centres undefined)

>  <TESTED_SYSTEM>
KM12 colon

>  <OBSERVED_RESULT>
> 25 µM

$$$$
>  <COMPOUND>
N#C/C(=C\c1ccc([N+](=O)[O-])s1)c1nc2cc(Cl)ccc2s1

>  <TESTED_SYSTEM>
KM12 colon

>  <OBSERVED_RESULT>
3.84 µM

$$$$
>  <COMPOUND>
CN(C)c1nc(=NCc2ccco2)ss1

>  <TESTED_SYSTEM>
KM12 colon

>  <OBSERVED_RESULT>
> 55.7 µM

$$$$
>  <COMPOUND>
Cn1cccc1-c1cc(-c2ccccc2)[nH]c(=O)c1C#N

>  <TESTED_SYSTEM>
KM12 colon

>  <OBSERVED_RESULT>
> 100 µM

$$$$
>  <COMPOUND>
C=C1C(=O)O[C@H]2[C@H]1CC/C(COC(=O)NCc1ccc(OC)cc1)=C\CC[C@@]1(C)O[C@@H]21

>  <TESTED_SYSTEM>
KM12 colon

>  <OBSERVED_RESULT>
20.5 µM

$$$$
>  <COMPOUND>
O=c1cc(-c2ccc(O)cc2)oc2cc(O[C@@H]3O[C@H](CO)[C@@H](O)[C@H](O)[C@H]3O)cc(O)c12

>  <TESTED_SYSTEM>
KM12 colon

>  <OBSERVED_RESULT>
> 100 µM

$$$$
>  <COMPOUND>
O=C(C#Cc1ccccc1)N1c2ccccc2CC1c1c[nH]c2ccccc12 (centres undefined)

>  <TESTED_SYSTEM>
KM12 colon

>  <OBSERVED_RESULT>
31.5 µM

$$$$
>  <COMPOUND>
CC(C)OP(=O)(OC(C)C)C1=NN(c2ccc([N+](=O)[O-])cc2)C(P(=O)(OC(C)C)OC(C)C)=NN1c1ccc([N+](=O)[O-])cc1

>  <TESTED_SYSTEM>
KM12 colon

>  <OBSERVED_RESULT>
> 100 µM

$$$$
>  <COMPOUND>
COc1ccc2c(c1)OCCc1cn[nH]c1-2

>  <TESTED_SYSTEM>
KM12 colon

>  <OBSERVED_RESULT>
> 100 µM

$$$$
>  <COMPOUND>
O=S(=O)(c1ccc(-c2nnc(-c3ccc(F)cc3)o2)cc1)c1ccc(-c2nnc(-c3ccc(F)cc3)o2)cc1

>  <TESTED_SYSTEM>
KM12 colon

>  <OBSERVED_RESULT>
> 100 µM

$$$$
>  <COMPOUND>
CN1CCN(Cc2ccc(NC(=O)c3cncc(C#Cc4cnc(N)cc4C#N)c3)cc2C(F)(F)F)CC1

>  <TESTED_SYSTEM>
KM12 colon

>  <OBSERVED_RESULT>
13.3 µM

$$$$
>  <COMPOUND>
CN(C)CCNC(=O)c1cccc2cc3cc(O)ccc3nc12

>  <TESTED_SYSTEM>
KM12 colon

>  <OBSERVED_RESULT>
10.4 µM

$$$$
>  <COMPOUND>
Cc1ccc(-n2cc(-c3ccc(Cl)cc3)c3c(NN)ncnc32)cc1

>  <TESTED_SYSTEM>
KM12 colon

>  <OBSERVED_RESULT>
29 µM

$$$$
>  <COMPOUND>
CC(C)(O)C1CC[C@]2(C)[C@H]3CC[C@@H]4[C@@]5(C)CCCC(C)(C)[C@@H]5CC[C@@]4(C)[C@]3(C)CC[C@@H]12 (some centres undefined)

>  <TESTED_SYSTEM>
KM12 colon

>  <OBSERVED_RESULT>
> 100 µM

$$$$
>  <COMPOUND>
COC(=O)NNC(c1ccc(Cl)cc1)c1ccc(Cl)cc1

>  <TESTED_SYSTEM>
KM12 colon

>  <OBSERVED_RESULT>
37 µM

$$$$
>  <COMPOUND>
Cc1ncc(C(=O)Nc2ccc(CN3CCN(C)CC3)c(C(F)(F)F)c2)cc1C#Cc1ccc(N)nc1

>  <TESTED_SYSTEM>
KM12 colon

>  <OBSERVED_RESULT>
1.21 µM

$$$$
>  <COMPOUND>
CC12CCCCC1=[N+]([O-])C(C)(C)N2O (centres undefined)

>  <TESTED_SYSTEM>
KM12 colon

>  <OBSERVED_RESULT>
> 100 µM

$$$$
>  <COMPOUND>
CN1CN(c2ccccc2)C2(CCN(CCCCCCF)CC2)C1=O

>  <TESTED_SYSTEM>
KM12 colon

>  <OBSERVED_RESULT>
> 100 µM

$$$$
